Would you mind telling me the reported pKd of each entry?
# Test system: T1, his-tagged ROR2 extracellular domain (ROR2-ECD, G&P Biosciences, cat. no. FCL0192) (human, UniProt Q01974 34-403)
# T1 construct: Bought protein; also called human ROR2-ECD; recombinant human ROR2-ECD; not shown: his tag
# T1 sequence (Q01974 34-403): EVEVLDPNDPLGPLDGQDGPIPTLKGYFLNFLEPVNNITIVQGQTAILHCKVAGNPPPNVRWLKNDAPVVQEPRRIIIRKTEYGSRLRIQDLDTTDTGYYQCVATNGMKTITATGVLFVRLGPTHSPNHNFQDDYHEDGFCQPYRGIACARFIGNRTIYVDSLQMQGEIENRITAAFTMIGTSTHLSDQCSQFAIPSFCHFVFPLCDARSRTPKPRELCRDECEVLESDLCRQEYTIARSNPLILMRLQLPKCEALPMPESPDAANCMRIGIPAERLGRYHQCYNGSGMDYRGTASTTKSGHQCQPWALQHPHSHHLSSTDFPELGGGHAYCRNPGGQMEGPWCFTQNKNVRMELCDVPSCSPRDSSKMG
# Method notes: BLI (Octet), antibody on anti-human IgG Fc sensor, ROR2-ECD 1.56-100 nM as analyte
Note on units: pKd is unitless, being -log10 of a concentration expressed in mol/L.

-- ask Dear colleague, I am looking for the recorded pKd of the following binder: IgG1-ROR2-A-HC3LC2-FEAR (antibody, V domains shown, Humanized variant) VH: EVQLLESGGGLVQPGGSLRLSCTVSGFSLSSYSMSWVRQAPGKGLEWIGVIYVNSKTWYANWAKGRFTISKTSTTVYLQMNSLRAEDTATYYCARGDAGYTTNSWLWGQGTLVTVSS VL: AFELTQSPSSLSASVGDRVTITCQASESIDNYLSWYQQKPGKAPKLLIYQAFKLASGVPSRFRGSGSGTDFTLTISSLQSEDFATYYCQSYSGISTTAFGGGTEVVIK
-- reply 8.74

-- ask IgG1-ROR2-A-HC5LC2-FEAR (antibody, V domains shown, Humanized variant) VH: EVQLLESGGGLVQPGGSLRLSCAASGFSLSSYSMSWVRQAPGKGLEWIGVIYVNSKTWYANWAKGRFTISKDNSKNTVYLQMNSLRAEDTATYYCARGDAGYTTNSWLWGQGTLVTVSS VL: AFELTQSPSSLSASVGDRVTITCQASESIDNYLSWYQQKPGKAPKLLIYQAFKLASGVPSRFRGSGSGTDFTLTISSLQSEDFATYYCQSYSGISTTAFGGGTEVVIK , same question.
-- reply 8.74

-- ask IgG1-ROR2-A-HC4LC1-FEAR (antibody, V domains shown, Humanized variant) VH: EVQLLESGGGLVQPGGSLRLSCTVSGFSLSSYSMSWVRQAPGKGLEWIGVIYVNSKTWYANWAKGRFTISKDNSKNTVYLQMNSLRAEDTATYYCARGDAGYTTNSWLWGQGTLVTVSS VL: AFELTQSPSSLSASVGDRVTITCQASESIDNYCSWYQQKPGKAPKLLIYQAFKLASGVPSRFRGSGSGTDFTLTISSLQSEDFATYYCQSYSGISTTAFGGGTEVVIK , same question.
-- reply 8.68

Ref: patent US20230365714A1
